- experimental protocol: yeast display, Sf9 membrane polyspecificity reagent, FACS + sequencing; frameworks hold sequencing errors
metric: polyreactivity (PSR sort gate)

Illustrative cases are given below, each with its answer.
[
  {
    "sequence": "QVQLVESGGGLVQAGGSLRLSCAASGRIFYYNAMGWYRQAPGKERELVAAITRSGSTNYADSVKGRFTISRDNSKNSVYLQMNSLKPEDTAVYYCAAPWRGSVFRYYSWGQGTQVTVSS",
    "observed value": "low polyreactivity"
  },
  {
    "sequence": "QVQLVESGGGLVQAGGSLRLSCAASGSIFYNYTMGWSRQAPGKERELVAAISSSGGSTYYADSVKGRFSISRDNAKITVYLQMNSLTPEDTAVYFCAARSPGYYRIVWYDYWGLGTQVTVSS",
    "observed value": "high polyreactivity"
  },
  {
    "sequence": "QVQLVESGGGLVQAGGSLRLSCAASGSIFRYYAMGWYRQAPGKERELVAAITSSAGSTYYADSVKGRFTISRDNAKNTVYLQMNSLKPEDTAVYYCNALVQGKEYYWGQGTQVTVSS",
    "observed value": "high polyreactivity"
  },
  {
    "sequence": "QVQLVETGGGLVQAGGSLRLSCAASGSIFVLYAMGWYRQAPGKEREFVAAISSSGGSTYADSVKGRFTISRDNAKNTVYLQMNSLKPEDTAVYYCARDVYLSDPPRDYDYWGQGTQVTVSS",
    "observed value": "low polyreactivity"
  }
]

Now examine the next entry.
Returns the measured polyreactivity (PSR sort gate) for the input sequence. Input: QVQLVESGGGLVHAGGSLSLSCAASGYTFPLYAMGRYRQAPGKERELVADNNIGGASTYYADSVKGRFTISRDNAKNTVYLQMNSLKPEDTAVYYCAKEDYDGYFPTFDYDYWGQGTQVTVSS
low polyreactivity
